The entries below come with measured IC50 values attached.
# measurement-target: [35S]-TBPS binding, rat brain cortical membranes (GABA receptor complex)
# experiment: Steroid inhibition of [35S]-TBPS binding
# reported-conditions: 3 nM [35S]-TBPS, 5 μM GABA
reported-endpoint: IC50

# compound, meas-value
records = [
    ("CC[C@@]1(O)CC[C@H]2[C@@H](CC[C@@H]3[C@@H]2CC[C@]2(C)[C@@H](C(=O)Cn4cccn4)CC[C@@H]32)C1", "≥ 500 nM"),
    ("C[C@@]1(O)CC[C@H]2[C@H](CC[C@@H]3[C@@H]2CC[C@]2(C)[C@@H](C(=O)Cn4cc([N+](=O)[O-])cn4)CC[C@@H]32)C1", "10 to 50 nM"),
    ("Cc1cnn(CC(=O)[C@H]2CC[C@H]3[C@@H]4CC[C@@H]5C[C@](C)(O)CC[C@@H]5[C@H]4CC[C@]23C)c1", "10 to 50 nM"),
    ("COC[C@@]1(O)CC[C@H]2[C@H](CC[C@@H]3[C@@H]2CC[C@]2(C)[C@@H](C(=O)Cn4cc(C#N)cn4)CC[C@@H]32)C1", "10 to 50 nM"),
    ("CCOC(=O)c1cnn(CC(=O)[C@H]2CC[C@H]3[C@@H]4CC[C@@H]5C[C@](C)(O)CC[C@@H]5[C@H]4CC[C@]23C)c1", "< 10 nM"),
    ("COC[C@@]1(O)CC[C@H]2[C@@H](CC[C@@H]3[C@@H]2CC[C@]2(C)[C@@H](C(=O)Cn4cc(C#N)cn4)CC[C@@H]32)C1", "10 to 50 nM"),
]

The reported measurements were obtained from patent US12201640B2.
